// data source = the supplement of paper PMC7877785

# experimentalDetails: self-splicing fitness, log relative to wild type (ln ratio); higher = more splicing; Tetrahymena group I intron in knt gene, E. coli kanamycin selection, DiMSum; sequences stand for … in CUCUCU…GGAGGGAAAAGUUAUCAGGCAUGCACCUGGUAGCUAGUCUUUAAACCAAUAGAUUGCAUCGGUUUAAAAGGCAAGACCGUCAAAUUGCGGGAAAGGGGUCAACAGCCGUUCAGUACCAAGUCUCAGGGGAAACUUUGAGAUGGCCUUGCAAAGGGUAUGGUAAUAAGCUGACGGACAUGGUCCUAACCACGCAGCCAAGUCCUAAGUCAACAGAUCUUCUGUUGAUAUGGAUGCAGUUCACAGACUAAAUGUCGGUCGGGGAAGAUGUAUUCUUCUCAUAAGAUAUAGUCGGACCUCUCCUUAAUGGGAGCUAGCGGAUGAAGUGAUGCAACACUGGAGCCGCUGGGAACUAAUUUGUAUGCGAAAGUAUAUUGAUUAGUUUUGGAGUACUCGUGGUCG;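 also: selection with 25 µg/mL kanamycin versus none on LB agar overnight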
# studyConditions: 30 °C
I'd be grateful if you could share measured self-splicing fitness (ln) for these entries.
Give the value as a plain number.

## Input Indicate its recorded self-splicing fitness (ln); the sequence in question is AGUAAGCAAUAUUACGGAAU
## Output -2.75

## Input # return recorded self-splicing fitness (ln) for input CAGCAGCAAUAUUACGUAUA
## Output -2.42

## Input Provide measured self-splicing fitness (ln) value, entry: CCCCAGCAAUAUUACGGCUA
## Output -3.77

## Input Give the reported value of self-splicing fitness (ln) for this record: CACUAGCAAUAUUACGACUG
## Output -0.3

## Input Specify self-splicing fitness (ln) for CAAGAGCAAUAUUACGUUUG and stop.
## Output -2.75

## Input Input UGCAAGCAAUAUUACGCCCG , output reported self-splicing fitness (ln).
## Output -0.288

## Input Annotate the sequence ACUCAGCAAUAUUACGUCCU with its measured self-splicing fitness (ln).
## Output -1.18

## Input State its self-splicing fitness (ln) for this sequence: AGCGAGCAAUAUUACGCUAA
## Output -1.62

## Input // Input: UGCAAGCAAUAUUACGACAU . Output its self-splicing fitness (ln) only.
## Output -1.68

## Input Please report the measured self-splicing fitness (ln) for GCUGAGCAAUAUUACGGGUC
## Output -4.37

## Input Provide measured self-splicing fitness (ln) value, entry: AUUUAGCAAUAUUACGAUCG
## Output -1.76

## Input State its self-splicing fitness (ln): UGGUAGCAAUAUUACGGUUA
## Output -0.381

## Input Query self-splicing fitness (ln) for GUCUAGCAAUAUUACGGGUG
## Output -1.28

## Input Assign self-splicing fitness (ln) to the following record: UCUGAGCAAUAUUACGGGAU
## Output -2.35

## Input Give the value of self-splicing fitness (ln) reported for the following: UUGAAGCAAUAUUACGUCGG
## Output 0.235

## Input Check the records and state self-splicing fitness (ln) for UUUUAGCAAUAUUACGGCUU
## Output -1.98

* * *

# experimentalDetails: self-splicing fitness, log relative to wild type (ln ratio); higher = more splicing; Tetrahymena group I intron in knt gene, E. coli kanamycin selection, DiMSum; sequences stand for … in CUCUCU…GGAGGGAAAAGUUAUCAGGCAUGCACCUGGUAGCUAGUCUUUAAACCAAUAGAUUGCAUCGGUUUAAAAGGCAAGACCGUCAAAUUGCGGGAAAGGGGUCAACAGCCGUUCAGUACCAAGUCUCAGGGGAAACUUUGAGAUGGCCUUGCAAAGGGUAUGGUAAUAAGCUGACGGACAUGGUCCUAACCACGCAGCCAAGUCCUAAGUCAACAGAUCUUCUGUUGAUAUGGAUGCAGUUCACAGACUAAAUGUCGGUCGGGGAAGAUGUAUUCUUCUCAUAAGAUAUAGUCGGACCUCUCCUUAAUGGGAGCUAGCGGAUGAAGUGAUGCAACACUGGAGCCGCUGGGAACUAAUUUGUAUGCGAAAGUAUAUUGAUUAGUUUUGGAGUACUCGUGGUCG
# studyConditions: 37 °C
Use -2 as the dividing line for self-splicing fitness (ln), with the line itself on the Y side and lower values as N.

## Input Evaluate UCCUAGCAAUAUUACGCCAC : self-splicing fitness (ln) at minimum -2?
## Output Y

## Input Determine whether this sequence has self-splicing fitness (ln) no lower than -2: UCUGAGCAAUAUUACGUGUA
## Output Y

## Input Form field: self-splicing fitness (ln) at least -2? Entry: CCGGAGCAAUAUUACGAAAU
## Output Y

## Input For this sequence, is measured self-splicing fitness (ln) -2 or higher? CUUGAGCAAUAUUACGCGUU
## Output N

## Input Does self-splicing fitness (ln) meet or surpass -2 for UGCUAGCAAUAUUACGGGAA ?
## Output Y

## Input Form field: self-splicing fitness (ln) at least -2? Entry: UACUAGCAAUAUUACGAAGG
## Output Y

## Input Check if self-splicing fitness (ln) >= -2 (inclusive). Item: GGCCAGCAAUAUUACGGGUA
## Output Y

## Input Entry GAAAAGCAAUAUUACGAUAA : is its self-splicing fitness (ln) no less than -2?
## Output Y

## Input Kindly determine if self-splicing fitness (ln) recorded for AUUCAGCAAUAUUACGGUAG is above or exactly -2.
## Output N

## Input State whether the measured self-splicing fitness (ln) reaches -2, counting equality as reaching it, for UCGCAGCAAUAUUACGUUUC
## Output Y

## Input Could you tell me if the measured self-splicing fitness (ln) of UGGUAGCAAUAUUACGUGCU reaches -2 or more?
## Output Y

## Input Determine whether this sequence has self-splicing fitness (ln) no lower than -2: CGCCAGCAAUAUUACGAGCG
## Output N

## Input Decide: self-splicing fitness (ln) of GAGUAGCAAUAUUACGAAAU >= -2?
## Output Y

## Input # check: self-splicing fitness (ln) of UCUGAGCAAUAUUACGGUUU is greater than or equal to -2
## Output Y

## Input Does self-splicing fitness (ln) meet or surpass -2 for UGCUAGCAAUAUUACGGGUG ?
## Output Y

## Input Is the recorded value of self-splicing fitness (ln) equal to or greater than -2 for this sequence? UUAAAGCAAUAUUACGGCCA
## Output Y

## Input Decide: is the reported value of self-splicing fitness (ln) for CAAAAGCAAUAUUACGACUG equal to or greater than -2?
## Output Y

## Input I'd appreciate it if you could say whether UAGCAGCAAUAUUACGCGAC has self-splicing fitness (ln) at least equal to -2.
## Output Y

## Input Confirm if self-splicing fitness (ln) reported for the sequence UGUAAGCAAUAUUACGCUCU is -2 or above.
## Output Y

## Input Is it the case that AGCCAGCAAUAUUACGCACC has self-splicing fitness (ln) reaching or exceeding -2?
## Output Y

## Input Identify whether the reported self-splicing fitness (ln) of the following sequence is -2 or greater: AUACAGCAAUAUUACGCUGC
## Output N

## Input Determine whether this sequence has self-splicing fitness (ln) no lower than -2: ACUUAGCAAUAUUACGUUGC
## Output Y

## Input Exam item: decide whether the reported self-splicing fitness (ln) for GAACAGCAAUAUUACGGCGG is at least -2.
## Output Y

## Input Answer whether self-splicing fitness (ln) of UACUAGCAAUAUUACGCUCA is greater than or equal to -2.
## Output Y

## Input Item AAUAAGCAAUAUUACGACGU with self-splicing fitness (ln) of -2 or above?
## Output Y

## Input Is it the case that AAAUAGCAAUAUUACGGACC has self-splicing fitness (ln) reaching or exceeding -2?
## Output Y

## Input Decide: self-splicing fitness (ln) of CCACAGCAAUAUUACGUGGA >= -2?
## Output N

## Input Has GGGAAGCAAUAUUACGUGGG a recorded self-splicing fitness (ln) greater than or equal to -2?
## Output N

## Input Hi team, for AUAUAGCAAUAUUACGUCAG , is the recorded self-splicing fitness (ln) at or above -2?
## Output Y

## Input Exam item: decide whether the reported self-splicing fitness (ln) for AGUCAGCAAUAUUACGUCUU is at least -2.
## Output Y

## Input For this sequence, is measured self-splicing fitness (ln) -2 or higher? ACGUAGCAAUAUUACGAUAU
## Output Y

## Input Given AGAUAGCAAUAUUACGUGCG , state whether its self-splicing fitness (ln) is at least -2.
## Output Y

* * *

Give self-splicing fitness (ln) for every item shown.
# experimentalDetails: self-splicing fitness, log relative to wild type (ln ratio); higher = more splicing; Tetrahymena group I intron in knt gene, E. coli kanamycin selection, DiMSum; sequences stand for … in CUCUCU…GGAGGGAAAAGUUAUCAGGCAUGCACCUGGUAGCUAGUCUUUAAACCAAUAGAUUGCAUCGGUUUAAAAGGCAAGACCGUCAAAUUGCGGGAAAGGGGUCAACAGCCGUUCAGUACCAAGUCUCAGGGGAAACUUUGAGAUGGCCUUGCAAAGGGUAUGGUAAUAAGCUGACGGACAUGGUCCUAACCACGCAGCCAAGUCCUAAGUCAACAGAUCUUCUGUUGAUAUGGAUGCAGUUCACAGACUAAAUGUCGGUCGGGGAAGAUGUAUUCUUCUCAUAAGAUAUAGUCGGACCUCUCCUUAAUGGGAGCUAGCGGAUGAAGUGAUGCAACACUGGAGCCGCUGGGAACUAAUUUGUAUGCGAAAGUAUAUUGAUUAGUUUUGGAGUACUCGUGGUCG
# studyConditions: 37 °C
Hey, just send me the number, nothing else.

## Input Please list self-splicing fitness (ln) recorded for the sequence ACCUAGCAAUAUUACGGGAG
## Output -1.41

## Input Return value of self-splicing fitness (ln) for input GACCAGCAAUAUUACGUAGU , no commentary.
## Output -0.248

## Input Check the records and state self-splicing fitness (ln) for AAGAAGCAAUAUUACGAGGG
## Output -2.32

## Input Using the record for CCCAAGCAAUAUUACGUCGG , state its measured self-splicing fitness (ln).
## Output -2.51

## Input Please supply the value of reported self-splicing fitness (ln) for the item UUUAAGCAAUAUUACGAUGG
## Output -0.525

## Input Return reported self-splicing fitness (ln). Input sequence: GCUGAGCAAUAUUACGGACA
## Output -0.488

## Input State, in one line, measured self-splicing fitness (ln) of GUUGAGCAAUAUUACGUCCU
## Output -1.47

## Input Return reported self-splicing fitness (ln). Input sequence: ACUCAGCAAUAUUACGACUA
## Output -0.128

## Input Assign self-splicing fitness (ln) to the following record: UUGUAGCAAUAUUACGUGUG
## Output -1.17

## Input Read off the recorded self-splicing fitness (ln) for UUAAAGCAAUAUUACGUCAC
## Output -1.76

## Input Given AAACAGCAAUAUUACGCAUG , respond with its self-splicing fitness (ln).
## Output -1.58

## Input Give the measured self-splicing fitness (ln) for ACGGAGCAAUAUUACGUGUU
## Output -2.56

## Input Fill in reported self-splicing fitness (ln) for this entry: AAUUAGCAAUAUUACGCGUC
## Output -1.1

## Input Respond only with self-splicing fitness (ln) recorded for UAUCAGCAAUAUUACGGCCC
## Output -1.05

## Input Indicate the recorded self-splicing fitness (ln) value for this sequence: UGAAAGCAAUAUUACGACAC
## Output -1.18

## Input Give the reported value of self-splicing fitness (ln) for this record: ACCGAGCAAUAUUACGUUCU
## Output -1.01

## Input Identify measured self-splicing fitness (ln) associated with AAAAAGCAAUAUUACGACCC
## Output 0.616

## Input Give me measured self-splicing fitness (ln), please, for this sequence: AUCCAGCAAUAUUACGCUUA
## Output 0.389

## Input Supply measured self-splicing fitness (ln) of UCUUAGCAAUAUUACGCGAC in your reply.
## Output -3.07

## Input Output self-splicing fitness (ln) of CGGUAGCAAUAUUACGGAAC
## Output -2.37

## Input Supply recorded self-splicing fitness (ln) for UACCAGCAAUAUUACGAUCC here.
## Output -1.84

## Input Answer with the recorded self-splicing fitness (ln) of AUUCAGCAAUAUUACGGUUG only.
## Output -0.981

## Input Quickly give me recorded self-splicing fitness (ln) for AAAUAGCAAUAUUACGCCAA
## Output -1.86

## Input Output self-splicing fitness (ln) of GCAAAGCAAUAUUACGCAGG
## Output -2.02

## Input Retrieve self-splicing fitness (ln) measured for ACUAAGCAAUAUUACGGGGU and print it.
## Output -2.2

## Input Identify measured self-splicing fitness (ln) associated with UUGAAGCAAUAUUACGGGGU
## Output -2.27

## Input Item CUCUAGCAAUAUUACGCUGG : provide self-splicing fitness (ln)
## Output -1.51

## Input Answer with reported self-splicing fitness (ln) of ACCGAGCAAUAUUACGGAUC
## Output -1.95

## Input Determine its reported self-splicing fitness (ln): GAGCAGCAAUAUUACGAUCG
## Output -2.48

## Input Identify the reported self-splicing fitness (ln) for the following entry. GGCGAGCAAUAUUACGGGGA
## Output -2.29

## Input Quote self-splicing fitness (ln) reported for GCCGAGCAAUAUUACGAAGG please.
## Output -2.12

## Input Provide only the value of recorded self-splicing fitness (ln) for AUGAAGCAAUAUUACGCGUC
## Output -1.48

## Input Return reported self-splicing fitness (ln). Input sequence: GCUCAGCAAUAUUACGCAUC
## Output -0.186

## Input Report self-splicing fitness (ln), nothing else, for this sequence: GAUUAGCAAUAUUACGUAUU
## Output -1.65
